Target: human oxytocin receptor (Homo sapiens)
Construct: host or cells: CHO cells (pcDNA3.1 vector)
Sequence (P30559 1-389): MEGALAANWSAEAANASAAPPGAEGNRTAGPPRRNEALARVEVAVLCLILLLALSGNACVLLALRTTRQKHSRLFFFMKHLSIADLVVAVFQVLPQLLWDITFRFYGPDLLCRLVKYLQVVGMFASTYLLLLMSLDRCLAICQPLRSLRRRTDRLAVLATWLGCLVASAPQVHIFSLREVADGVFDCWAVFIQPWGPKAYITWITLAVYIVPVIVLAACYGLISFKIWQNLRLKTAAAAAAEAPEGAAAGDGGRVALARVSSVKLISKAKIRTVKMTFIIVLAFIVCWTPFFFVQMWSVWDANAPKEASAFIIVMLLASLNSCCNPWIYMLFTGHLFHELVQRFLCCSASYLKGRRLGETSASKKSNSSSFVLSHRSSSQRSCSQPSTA
Experiment: Oxytocin binding in Chinese Hamster Ovary cell membranes expressing human oxytocin receptors
Settings: 100 nM, CHO cell membranes, [3H]oxytocin, values without parentheses, read-out: OT % inhibition @ 100% nM
For each of the compounds below, state its inhibition at 0.1 µM.
# number only, unit % dropped from output

# input # query: inhibition at 0.1 µM of entry COc1cccc(-c2cc(OC)c(C(=O)N3Cc4ccc(C(=O)N5CCN(C)CC5)n4Cc4ccccc43)cc2Cl)c1
# output 78

# input # query: inhibition at 0.1 µM of entry COc1cccc(-c2cc(OC)c(C(=O)N3Cc4ccc(C(=O)N5CCCN(C)CC5)n4Cc4ccccc43)cc2Cl)c1
# output 79

# input # query: inhibition at 0.1 µM of entry COc1cccc(-c2ccc(C(=O)N3Cc4ccc(C(=O)N5CCC(N6CCCC6)CC5)n4Cc4ccccc43)cc2OC)c1
# output 78

# input # query: inhibition at 0.1 µM of entry COc1cc(-c2ccccc2C)c(Cl)cc1C(=O)N1Cc2ccc(C(=O)N3CCN(C(C)C)CC3)n2Cc2ccccc21
# output 79

Data provenance is patent US7109193B2.
